Listed compounds paired with reported Ki
system under test: vanilloid receptor 1 (VR1/TRPV1 receptor) (Homo sapiens)
Construct: expressed in transfected cells; host or cells: CHO K1
method description: Functional testing on the vanilloid receptor 1 (FLIPR Ca2+ influx assay, capsaicin stimulation)
Type: cell-based
experimental setup: Cap = capsaicin; human being; Ki from IC50 by the Cheng-Prusoff equation; read-out: (f) Ki (human being) [nM] Cap

Here are 3 compounds together with their reported answers.
CCCCOc1nc(C(F)(F)F)ccc1CNC(=O)C(C)c1ccc(CNS(C)(=O)=O)c(OC)c1 (centres unmarked) [Example 29]
61 nM
CCCCOc1nc(C(F)(F)F)ccc1CNC(=O)C(C)c1ccc(CNS(=O)(=O)CC)c(F)c1 (centres unmarked) [Example 31]
15 nM
CC(C(=O)NCc1ccc(C(F)(F)F)nc1/C=C/C(C)(C)C)c1ccc(CNS(C)(=O)=O)c(F)c1 (centres unmarked) [Example 4]
12 nM

May I ask what Ki has been recorded for CC(C)Oc1nc(C(F)(F)F)ccc1CNC(=O)Nc1ccc(CNS(N)(=O)=O)c(F)c1 [Example 36] ?
6 nM

Continue with CCCCOc1nc(C(F)(F)F)ccc1CNC(=O)Nc1ccc(CNS(N)(=O)=O)c(F)c1 [Example 37]
7 nM

Continue with CC(C(=O)NCc1ccc(C(F)(F)F)nc1OC1CCCC1)c1ccc(CNS(C)(=O)=O)c(F)c1 (centres unmarked) [Example 20]
13 nM

Continue with CC(C(=O)NCc1ccc(C(F)(F)F)nc1SC1CCCCC1)c1ccc(CNS(C)(=O)=O)c(F)c1 (centres unmarked) [Example 43]
44 nM

Continue with CC(C)Oc1nc(C(F)(F)F)ccc1CNC(=O)Nc1ccc(CNS(N)(=O)=O)cc1 [Example 32]
10 nM

====

Listed compounds paired with reported Ki
system under test: vanilloid receptor 1 (VR1/TRPV1 receptor) (Homo sapiens, UniProt Q8NER1)
Construct: expressed in transfected cells; host or cells: CHO K1
Sequence (Q8NER1 whole entry): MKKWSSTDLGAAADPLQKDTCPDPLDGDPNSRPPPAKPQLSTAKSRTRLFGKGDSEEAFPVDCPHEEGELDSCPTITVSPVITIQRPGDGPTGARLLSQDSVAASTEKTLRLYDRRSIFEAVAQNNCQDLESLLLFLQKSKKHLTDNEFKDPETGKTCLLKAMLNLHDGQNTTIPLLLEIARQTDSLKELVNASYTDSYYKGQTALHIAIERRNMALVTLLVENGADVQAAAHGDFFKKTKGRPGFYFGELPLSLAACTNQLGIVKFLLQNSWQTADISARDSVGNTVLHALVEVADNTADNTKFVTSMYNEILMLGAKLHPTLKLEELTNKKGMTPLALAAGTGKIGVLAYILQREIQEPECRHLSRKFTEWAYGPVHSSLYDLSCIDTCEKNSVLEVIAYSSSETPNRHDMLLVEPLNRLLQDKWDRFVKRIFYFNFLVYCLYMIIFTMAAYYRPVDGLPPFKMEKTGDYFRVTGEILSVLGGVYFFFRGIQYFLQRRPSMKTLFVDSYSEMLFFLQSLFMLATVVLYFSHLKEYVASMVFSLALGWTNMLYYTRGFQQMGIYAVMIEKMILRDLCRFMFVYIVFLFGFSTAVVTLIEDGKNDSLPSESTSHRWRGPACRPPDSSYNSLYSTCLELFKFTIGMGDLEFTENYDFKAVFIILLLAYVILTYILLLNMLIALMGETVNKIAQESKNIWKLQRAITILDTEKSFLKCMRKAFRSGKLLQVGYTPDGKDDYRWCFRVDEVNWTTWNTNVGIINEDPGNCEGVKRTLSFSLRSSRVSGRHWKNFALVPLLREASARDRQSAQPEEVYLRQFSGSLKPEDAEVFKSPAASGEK
method description: Functional testing on the vanilloid receptor 1 (FLIPR Ca2+ influx assay, capsaicin stimulation)
Type: cell-based
experimental setup: Cap = capsaicin; human being; Ki from IC50 by the Cheng-Prusoff equation; read-out: (f) Ki (human being) [nM] Cap
Method: […] In the process, the Ca^2+ influx is quantified in the FLIPR assay with the aid of a Ca^2+-sensitive dye (type Fluo-4, Molecular Probes Europe BV, Leiden, the Netherlands) in a fluorescent imaging plate reader (FLIPR, Molecular Devices, Sunnyvale, USA), as described hereinafter. […] The FLIPR protocol consists of 2 substance additions. […] After 5 minutes' incubation, 100 nM of capsaicin are applied and the Ca^2+ influx is also determined. […]
# output: bare number, implied unit nM

Here are 6 compounds together with their reported answers.
CCCCOc1nc(C(F)(F)F)ccc1CNC(=O)C(C)c1ccc(CNS(C)(=O)=O)c(F)c1 (stereo not shown)
8
CCCCCc1nc(C(F)(F)F)ccc1CNC(=O)C(C)c1ccc(CNS(C)(=O)=O)c(F)c1 (stereo not shown)
14
NS(=O)(=O)NCc1ccc(NC(=O)NCc2ccc(C(F)(F)F)nc2OC2CCCC2)cc1
1
NS(=O)(=O)NCc1ccc(NC(=O)NCc2ccc(C(F)(F)F)nc2OC2CCCC2)cc1F
5
CC(C(=O)NCc1ccc(C(F)(F)F)nc1C1CCCC1)c1ccc(CNS(C)(=O)=O)c(F)c1 (stereo not shown)
13
CCCCOc1nc(C(F)(F)F)ccc1CNC(=O)Nc1ccc(CNS(N)(=O)=O)cc1
8

Shifting focus to the compound that follows.
May I ask what Ki has been recorded for CC(C(=O)NCc1ccc(C(F)(F)F)nc1-c1ccc2c(c1)OCO2)c1ccc(CNS(C)(=O)=O)c(F)c1 (stereo not shown) ?
59

====

system under test: vanilloid receptor 1 (VR1/TRPV1 receptor) (Homo sapiens, UniProt Q8NER1)
Construct: expressed in transfected cells; host or cells: CHO K1
method description: Functional testing on the vanilloid receptor 1 (FLIPR Ca2+ influx assay, capsaicin stimulation)
Format: cell-based
experimental setup: Cap = capsaicin; human being; Ki from IC50 by the Cheng-Prusoff equation; read-out: (f) Ki (human being) [nM] Cap
measurement kind: Ki (nM)
# output: bare number, implied unit nM

CCOc1nc(C(F)(F)F)ccc1CNC(=O)Nc1ccc(CNS(N)(=O)=O)c(F)c1
16

Shifting focus to the compound that follows.
May I ask what Ki has been recorded for CC(C(=O)NCc1ccc(C(F)(F)F)nc1-c1cccs1)c1ccc(CNS(C)(=O)=O)c(F)c1 (centres unmarked) ?
41

====

system under test: vanilloid receptor 1 (VR1/TRPV1 receptor) (Homo sapiens)
Construct: expressed in transfected cells; host or cells: CHO K1
method description: Functional testing on the vanilloid receptor 1 (FLIPR Ca2+ influx assay, capsaicin stimulation)
Format: cell-based
experimental setup: Cap = capsaicin; human being; Ki from IC50 by the Cheng-Prusoff equation; read-out: (f) Ki (human being) [nM] Cap
Listed compounds paired with reported Ki
# output: bare number, implied unit nM

Here are 5 compounds together with their reported answers.
CC(C(=O)NCc1ccc(C(F)(F)F)nc1OC1CCOCC1)c1ccc(CNS(C)(=O)=O)c(F)c1 (stereo not drawn) [Example 25]
111
CC(C)Oc1nc(C(F)(F)F)ccc1CNC(=O)C(C)c1ccc(CNS(C)(=O)=O)c(F)c1 (stereo not drawn) [Example 15]
37
CC(C(=O)NCc1ccc(C(F)(F)F)nc1C1CCCCC1)c1ccc(CNS(C)(=O)=O)c(F)c1 (stereo not drawn) [Example 6]
15
CCS(=O)(=O)NCc1ccc(C(C)C(=O)NCc2ccc(C(F)(F)F)nc2OC(C)C)cc1F (stereo not drawn) [Example 30]
70
CC(C(=O)NCc1ccc(C(F)(F)F)nc1-c1ccc2cc[nH]c2c1)c1ccc(CNS(C)(=O)=O)c(F)c1 (stereo not drawn) [Example 44]
83

Shifting focus to the compound that follows.
May I ask what Ki has been recorded for CC(C(=O)NCc1ccc(C(F)(F)F)nc1-c1ccoc1)c1ccc(CNS(C)(=O)=O)c(F)c1 (stereo not drawn) [Example 46] ?
46
